- Test system: NCI-H522 lung
- ASSAY METHOD TEXT: NCI-60 one-dose screen, 48 h (100 = growth as untreated, 0 = no growth, -100 = all killed)
- ASSAY CONDITIONS: 10 µM unless noted
- Procedure: Growth inhibition of the NCI-H522 human Non-Small Cell Lung tumor cell line is measured as a screen for anti-cancer activity. Cells are grown in 96 well plates and exposed to the test compound for 48 hours. Compounds are tested at a single concentration, which is 10^-5 M for most compounds. The reported endpoint is percent growth (GI% or GIPRCNT), where numbers from 0 - 100% represent growth inhibition, and numbers from -100% - 0 represent cell death. […]
About 83,000 compounds went through this panel and 20% of them were active in at least one assay; those are over-represented in the sample as a whole.
OUTCOME MEASURE: growth (%)
Answers are plain numbers, in %.

Examples with their reported growth follow.
CC(C)=C1C=C2CC[C@@H]3[C@](C)(CCC[C@@]3(C)C(=O)O)[C@H]2CC1 ... 96.2
NC(=S)Nc1ccc2c(c1)Cc1ccccc1-2 ... 62.9
CCC1CCCCN1C(=S)N/N=C(\C)c1ccccn1 (configuration not stated) ... -18.6
CN(C)c1ccc2cc3c(cc2c1)Oc1ccccc1N3.[Cl][Zn][Cl] ... -7.15
O=S(=O)(O)c1cnccn1 ... 96
NC1=C(Br)C(=O)c2ncccc2C1=O ... -59.1

Required: growth, one value per compound below.
1. Cc1cc(N/N=C/c2ccccn2)nc2ccccc12
2. CCCC[n+]1c(/C=C\c2c(OC)cc(OC)cc2OC)ccc2ccccc21

1. -25.6
2. -73.4

###

- System: SK-MEL-2 melanoma
- ASSAY METHOD TEXT: NCI-60 one-dose screen, 48 h
- ASSAY CONDITIONS: 10 µM unless noted
This is part of a sample that, as a whole, favours compounds with a hit. Of some 83,000 tested, about 20% had one in any assay. Calls of active or inactive are those of the source. How the source made its calls: active means growth percent below 10; inactive means the rest.
Mark one answer only. Choices: class 1 = active, class 0 = inactive

Some solved cases for reference:
CCN(CC)c1ccc(/C=C\C(=O)c2ccc(NC(C)=O)cc2)cc1 ... class 0
O=[N+]([O-])c1ccc([I+]c2ccccc2)cc1 ... class 1
CCCc1cc(=O)oc2c3c(c4c(c12)OC(C)(C)CC4)OC(C)[C@H](C)[C@@H]3O (some centres not stated) ... class 0
CCCCC(CCc1ccc([N+](=O)[O-])cc1)(C(C)=O)C(=O)OCC (configuration not stated) ... class 0
O=C(Nc1ccc(Cl)c(Cl)c1)OCc1ccco1 ... class 0
c1ccc(-c2cccc(-c3ccccn3)n2)nc1 ... class 0
COc1cc(-c2ccc(-[n+]3nc(-c4ccc([N+](=O)[O-])cc4)nn3-c3ccc([N+](=O)[O-])cc3)c(OC)c2)ccc1-[n+]1nc(-c2ccc([N+](=O)[O-])cc2)nn1-c1ccc([N+](=O)[O-])cc1 ... class 1
CN=C(N)N/N=C(\C)c1ccc2c(c1)Cc1ccccc1-2 ... class 1

Fill in: this test's call for N#CCc1cccc2ccccc12 is ___
class 0

Fill in: this test's call for O=C(Cc1ccccc1)C(F)(F)F is ___
class 0

Fill in: this test's call for Cc1oc2c(C)c3oc(=O)cc(C)c3cc2c1CCl is ___
class 0

Fill in: this test's call for NC(=S)N/N=C\c1nccc2c(N)cccc12 is ___
class 0

Fill in: this test's call for CN(C)CC(C)(CN(C)C)C(=O)/C=C/c1c(Cl)cccc1Cl is ___
class 0

Fill in: this test's call for COc1cc(NC(=O)C2=C(C)NC(C)=C(C(=O)Nc3cc(OC)c(Cl)cc3OC)C2c2cccc([N+](=O)[O-])c2)c(OC)cc1Cl is ___
class 0

Fill in: this test's call for Nc1cccc2cccc([N+](=O)[O-])c12 is ___
class 0

Fill in: this test's call for COc1cc(/C=C/c2ccnc3ccccc23)cc(OC)c1OC is ___
class 0

Fill in: this test's call for NCCCN(CCCN)CCCNCc1c2ccccc2c(CNCCCN(CCCN)CCCN)c2ccccc12 is ___
class 0

Fill in: this test's call for Cc1cc(C)c([I+]c2c(C)cc(C)cc2C)c(C)c1 is ___
class 1

Fill in: this test's call for O=[N+]([O-])CC(O)c1ccccc1 (configuration not stated) is ___
class 0

Fill in: this test's call for NNc1ccc(Cl)cc1Cl is ___
class 0

Fill in: this test's call for COc1cc(NCc2ccc3nc(N)nc(N)c3c2C)cc(OC)c1OC (tested in a mixture with another compound) is ___
class 0

Fill in: this test's call for CN(C)CCSC1=Nc2ccc(Cl)cc2C(c2ccccc2Cl)N(C)C1 (configuration not stated) is ___
class 0
